Here the recorded pIC50 is given for each entry.
Target protein (sequence): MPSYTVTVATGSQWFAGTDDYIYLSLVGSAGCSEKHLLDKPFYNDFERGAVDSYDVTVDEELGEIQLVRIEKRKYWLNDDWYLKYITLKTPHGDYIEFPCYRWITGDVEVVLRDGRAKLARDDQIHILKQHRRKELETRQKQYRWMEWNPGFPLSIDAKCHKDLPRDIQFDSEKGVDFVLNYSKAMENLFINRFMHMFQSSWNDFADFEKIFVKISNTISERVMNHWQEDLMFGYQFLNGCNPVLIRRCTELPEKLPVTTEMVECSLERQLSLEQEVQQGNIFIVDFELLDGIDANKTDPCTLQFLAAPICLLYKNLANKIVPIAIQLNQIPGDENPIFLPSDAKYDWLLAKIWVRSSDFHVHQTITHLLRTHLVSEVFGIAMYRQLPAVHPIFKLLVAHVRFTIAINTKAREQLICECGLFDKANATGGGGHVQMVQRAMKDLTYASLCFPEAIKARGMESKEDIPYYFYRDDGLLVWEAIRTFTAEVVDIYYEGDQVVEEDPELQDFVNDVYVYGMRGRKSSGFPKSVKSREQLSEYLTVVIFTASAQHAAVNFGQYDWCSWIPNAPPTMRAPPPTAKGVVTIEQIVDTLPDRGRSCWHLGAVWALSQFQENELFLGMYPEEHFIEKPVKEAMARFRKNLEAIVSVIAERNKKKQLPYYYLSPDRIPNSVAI
pIC50: −log10 of the molar value.

MOLECULE: CCC(OC)(c1cccc(OCc2ccc3c(-c4ccccc4)c4c(cc3c2)C(=O)OC4)c1)c1nccs1 (centres undefined)
pIC50: 7.30

MOLECULE: CC(C)(C)Sc1c(CC(C)(C)C(=O)O)n(Cc2ccc(Cl)cc2)c2ccc(OCc3ccc4ccccc4n3)cc12 [QUIFLAPON]
pIC50: 5.30

MOLECULE: COC1(c2cccc(OCc3ccc4c(-c5ccccc5)c5c(cc4c3)C(=O)OC5)c2)CCOCC1
pIC50: 7.70

MOLECULE: COC1(c2cccc(COc3ccc4ccccc4c3)c2)CCOCC1
pIC50: 6.00
